// provenance: patent US20260130879A1

Target: hDHODH (Homo sapiens, UniProt Q02127)
Construct: measured using an N-terminally truncated recombinant hDHODH enzyme
Sequence (Q02127 29-395): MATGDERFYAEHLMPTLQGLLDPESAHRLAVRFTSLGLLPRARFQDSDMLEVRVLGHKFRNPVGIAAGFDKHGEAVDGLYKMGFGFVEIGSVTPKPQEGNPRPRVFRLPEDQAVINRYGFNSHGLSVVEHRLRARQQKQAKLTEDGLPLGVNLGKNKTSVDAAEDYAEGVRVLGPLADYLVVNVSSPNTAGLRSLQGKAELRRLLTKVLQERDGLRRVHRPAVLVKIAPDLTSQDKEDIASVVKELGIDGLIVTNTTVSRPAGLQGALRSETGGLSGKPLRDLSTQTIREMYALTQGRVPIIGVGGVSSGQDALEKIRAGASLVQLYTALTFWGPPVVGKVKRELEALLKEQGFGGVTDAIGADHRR
Test: in vitro inhibition of hDHODH
Assay type: biochemical
Description: The in vitro inhibition of hDHODH was measured using an N-terminally truncated recombinant hDHODH enzyme. Briefly, the hDHODH concentration was adjusted in a way that an average slope of approximately 0.2 AU/min served as the positive control (e.g., without inhibitor). The assay mixture contained 60 μM 2,6-dichloroindophenol, 50 μM decylubiquinone and 100 μM dihydroorotate. […] For the determination of the IC50 values, each data point was recorded in triplicate.
property label: IC50

Endpoint output: IC50 of `[2H]C([2H])([2H])Oc1cccc(-c2c(F)c(F)c(NC(=O)c3c(C(=O)O)sc(C)c3C)c(F)c2F)c1` . Value? < 100 nM

So what's the measured IC50 for this one? `[2H]C([2H])([2H])Oc1ccccc1-c1c(F)c(F)c(NC(=O)c2cscc2C(=O)O)c(F)c1F` < 10 nM

I am curious: what IC50 value has been reported for `[2H]C([2H])([2H])Oc1cccc(-c2ccc(NC(=O)c3cscc3C(=O)O)cc2)c1` ? 100 to 1000 nM

State the recorded IC50 for this entry: `C#CCOc1cccc(-c2ccc(NC(=O)c3cscc3C(=O)O)cc2)c1` 1000 to 10000 nM

Quick one: IC50 of `[2H]c1c([2H])c([2H])c(-c2c(F)c(F)c(NC(=O)C3=C(C(N)=O)CC(F)(F)C3)c(F)c2F)c([2H])c1[2H]` ? 1000 to 10000 nM

Which IC50 value is on record for `C#CCOc1cccc(-c2ccc(NC(=O)c3cscc3C(=O)O)c(F)c2)c1` ? 100 to 1000 nM

Look up IC50 for this compound: `[2H]C([2H])([2H])Oc1cccc(-c2c(F)c(F)c(NC(=O)C3=C(C(=O)N(C)C)CC(F)(F)C3)c(F)c2F)c1` 1000 to 10000 nM

Given the entry `C#CCOc1cccc(-c2ccc(NC(=O)c3cscc3C(N)=O)cc2)c1` , report its measured IC50. > 10000 nM

Field request: IC50 | item: `[2H]C([2H])([2H])Oc1cccc(-c2c(F)c(F)c(NC(=O)c3ccsc3C(=O)NCC)c(F)c2F)c1` > 10000 nM

Entry `C#CCOc1cccc(-c2ccc(NC(=O)c3cscc3C(=O)NCC)c(F)c2)c1` : reported IC50 = ? > 10000 nM

What value of IC50 has been recorded for this entry: `[2H]C(F)(F)Oc1cccc(-c2ccc(NC(=O)C3=C(C(=O)O)CCC3)c(F)c2)c1` 1000 to 10000 nM

Dear colleague, I am looking for the recorded IC50 of the following compound: `[2H]C([2H])([2H])Oc1cccc(-c2c(F)c(F)c(NC(=O)c3ccsc3C(N)=O)c(F)c2F)c1` 1000 to 10000 nM

====

biological target: human Nurr1 (Homo sapiens, UniProt P43354); experiment: Hybrid Gal4-Nurr1 reporter gene assay in HEK293T cells
Sequence (P43354 360-595 limits assumed): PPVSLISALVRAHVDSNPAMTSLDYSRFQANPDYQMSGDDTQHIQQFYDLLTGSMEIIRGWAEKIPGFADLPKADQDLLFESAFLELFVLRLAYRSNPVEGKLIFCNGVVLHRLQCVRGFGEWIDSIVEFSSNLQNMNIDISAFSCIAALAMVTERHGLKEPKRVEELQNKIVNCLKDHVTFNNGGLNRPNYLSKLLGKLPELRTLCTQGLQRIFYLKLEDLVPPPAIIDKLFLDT
pEC50: −log10 of the molar value.
For each record, write down the corresponding pEC50.

Missing value: pEC50, human Nurr1 (Homo sapiens, UniProt P43354), entry [2H]C([2H])([2H])Oc1cccc(C23CCC(NC(=O)C4=C(C(=O)O)CCC4)(CC2)CC3)c1 [reference compound] . Fill in? < 5.00

Request - read-out pEC50 | tested on human Nurr1 (Homo sapiens, UniProt P43354) | compound [2H]C([2H])([2H])Oc1cccc(-c2cc(F)c(NC(=O)C3=C(C(=O)NS(=O)(=O)C(F)F)CCC3)c(F)c2)c1 [2/22] 5.00 to 6.00

Param readout = pEC50; param system = human Nurr1 (Homo sapiens, UniProt P43354); param query = [2H]C([2H])([2H])Oc1cccc(-c2c(F)c(F)c(NC(=O)c3c(C(=O)O)sc(C)c3C)c(F)c2F)c1 [6/13] ; response: value > 7.00

GET /values?readout=pEC50&system=human Nurr1 (Homo sapiens, UniProt P43354)&item= C#CCOc1cccc(-c2ccc(NC(=O)c3cscc3C(=O)O)c(F)c2)c1 [6/52] > 7.00

====

target: human Nurr1 (Homo sapiens); assay: Hybrid Gal4-Nurr1 reporter gene assay in HEK293T cells
Please go through the items and note down their EC50.

Entry C#CCOc1cccc(-c2ccc(NC(=O)c3cscc3C(N)=O)cc2)c1 [6/54] : reported EC50 = ? 1 to 10 µM

Would you mind telling me what EC50 value was observed for [2H]C([2H])([2H])Oc1cccc(-c2cc(F)c(NC(=O)C3=C(C(=O)NOCCO)CCC3)c(F)c2)c1 [2/24] ? 1 to 10 µM

Could you tell me which EC50 is on file for [2H]C([2H])([2H])Oc1ccccc1-c1c(F)c(F)c(NC(=O)c2cscc2C(=O)O)c(F)c1F [6/5] ? < 0.1 µM

I would be grateful if you could share the reported EC50 for [2H]C([2H])([2H])Oc1cccc(-c2cc(F)c(NC(=O)C3=C(/C(N)=N/O)CCC3)c(F)c2)c1 [2/20] . 0.1 to 1 µM

Requested read-out: EC50. Entry: [2H]C([2H])([2H])Oc1cccc(-c2c(F)c(F)c(NC(=O)c3ccsc3C(=O)NCC#N)c(F)c2F)c1 [6/39] 1 to 10 µM

Entry C#CCOc1cccc(-c2ccc(NC(=O)c3cscc3C(=O)NCC)cc2)c1 [6/57] : reported EC50 = ? 1 to 10 µM

State the recorded EC50 for this entry: [2H]C([2H])([2H])Oc1cccc(-c2c(F)c(F)c(NC(=O)c3ccsc3C(=O)NCCO)c(F)c2F)c1 [6/40] 1 to 10 µM

What value of EC50 has been recorded for this entry: O=C(O)C1=C(C(=O)Nc2c(F)cc(-c3cccc4c3OCO4)cc2F)CCC1 [reference compound] > 10 µM

What measured EC50 goes with [2H]C([2H])([2H])Oc1cccc(-c2ccc(NC(=O)c3cscc3C(N)=O)cc2)c1 [6/53] ? 0.1 to 1 µM

What EC50 value was documented for this compound, [2H]C([2H])([2H])Oc1cccc(-c2c(F)c(F)c(NC(=O)c3ccccc3C(=O)O)c(F)c2F)c1 [6/20] ? < 0.1 µM

Fill in: EC50 of [N-]=[N+]=NCCOc1cccc(-c2ccc(NC(=O)C3=C(C(=O)O)CCC3)c(F)c2)c1 [4/1] is ___ < 0.1 µM

EC50 lookup needed for [2H]C([2H])([2H])Oc1cccc(-c2ccc(NC(=O)C3=C(C(=O)O)CCC3)c3cnccc23)c1 [2/13] , thanks. 1 to 10 µM

Would you mind telling me what EC50 value was observed for C#CCOc1cccc(-c2ccc(NC(=O)c3cscc3C(=O)NCC)c(F)c2)c1 [6/58] ? 1 to 10 µM

Item [2H]C([2H])([2H])Oc1cccc(-c2ccc(NC(=O)c3cscc3C(=O)NCC)cc2)c1 [6/56] has what recorded EC50? 1 to 10 µM

For [2H]C([2H])([2H])Oc1cccc(-c2c(F)c(F)c(NC(=O)c3ccsc3C(=O)NCC)c(F)c2F)c1 [6/15] , what is its reported EC50? 0.1 to 1 µM

For the compound shown here, [2H]c1c([2H])c([2H])c(-c2c(F)c(F)c(NC(=O)c3ccsc3C(N)=O)c(F)c2F)c([2H])c1[2H] [6/45] , give the reported EC50. 0.1 to 1 µM

Reported EC50 for [2H]c1cc([2H])c(-c2ccc(NC(=O)C3=C(C(=O)O)CCC3)c(F)c2)c([2H])c1O [2/4] : what is it? 0.1 to 1 µM

Quick one: EC50 for [2H]C([2H])([2H])Oc1cccc(-c2c(F)c(F)c(NC(=O)C3=C(C(=O)N(C)C)CC(F)(F)C3)c(F)c2F)c1 [6/27] ? 1 to 10 µM

So what does the record say about EC50 for [2H]C([2H])([2H])Oc1cccc(-c2c(F)c(F)c(NC(=O)c3ccsc3C(N)=O)c(F)c2F)c1 [6/14] ? 0.1 to 1 µM

EC50 for [2H]C([2H])([2H])Oc1cccc(-c2cc(F)c(NC(=O)C3=C(C(=O)NOCC)CCC3)c(F)c2)c1 [2/18] ? 1 to 10 µM

Tell me the measured EC50 of [2H]C([2H])([2H])Oc1cccc(-c2cc(F)c(NC(=O)C3=C(C(=O)O)CCC3)c(OC([2H])([2H])[2H])c2)c1 [2/31] , please. 0.1 to 1 µM

For the compound shown here, [2H]C([2H])([2H])Oc1cccc(-c2ccc(N(C)C(=O)C3=C(C(=O)O)CCC3)c(F)c2)c1 [reference compound] , give the reported EC50. > 10 µM

Any idea what its EC50 is? The compound is [2H]C([2H])([2H])Oc1cccc(-c2cc(F)c(NC(=O)C3=C(C(=O)NS(=O)(=O)C4(C)CC4)CCC3)c(F)c2)c1 [2/21] 1 to 10 µM

What EC50 value was documented for this compound, [2H]C([2H])([2H])Oc1cccc(-c2ccc(NC(=O)c3cscc3C(=O)O)cc2)c1 [6/50] ? < 0.1 µM

EC50 lookup needed for C#CCOc1cccc(-c2ccc(NC(=O)c3cscc3C(=O)O)cc2)c1 [6/51] , thanks. 0.1 to 1 µM

State the recorded EC50 for this entry: [2H]C([2H])([2H])Oc1cccc(-c2cc(F)c(NC(=O)C3=C(C(=O)NOCCF)CCC3)c(F)c2)c1 [2/23] 0.1 to 1 µM

If you can, please state the reported EC50 value of [2H]c1c([2H])c([2H])c(-c2c(F)c(F)c(NC(=O)C3=C(C(N)=O)CC(F)(F)C3)c(F)c2F)c([2H])c1[2H] [6/46] . 0.1 to 1 µM

Please report the recorded EC50 for [2H]C(F)(F)Oc1cccc(-c2ccc(NC(=O)C3=C(C(=O)O)CCC3)c(F)c2)c1 [2/2] . 0.1 to 1 µM

Dear colleague, I am looking for the recorded EC50 of the following compound: [2H]C([2H])([2H])Oc1cccc(-c2c(F)c(F)c(NC(=O)C3=C(C(=O)O)CCC3)c(F)c2F)c1 [2/10] < 0.1 µM
